Where do these numbers come from? They come from patent US20230174596A1.

EXPERIMENTAL_SYSTEM: T1, hVEGF-A Y21A (human, UniProt P15692 34-135)
T1 chain: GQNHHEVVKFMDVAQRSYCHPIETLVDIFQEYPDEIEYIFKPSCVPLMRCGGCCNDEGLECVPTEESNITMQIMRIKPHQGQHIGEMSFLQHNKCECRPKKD
METHOD_DESCRIPTION: SPR
Each item that follows carries a reported Kd.
ENDPOINT_LABEL: Kd (nM)

> print(dat)
                                     binder  test.value
1  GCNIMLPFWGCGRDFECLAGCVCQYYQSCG (designed binder) [VEGF_CKP9.54.90]         3.5
2  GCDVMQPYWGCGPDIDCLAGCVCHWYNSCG (designed binder, also called L2.9.63.12) [VEGF_CKP9.63.12]        9.84
3  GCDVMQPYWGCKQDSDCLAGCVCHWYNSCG (designed binder, also called EM63) [VEGF_CKP9.63]         585
4  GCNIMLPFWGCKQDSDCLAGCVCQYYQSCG (designed binder, also called EM54) [VEGF_CKP9.54]         317
